Reported values of pIC50 for individual entries
Test system: HUVEC
measurement-notes: Cytotoxicity against HUVEC assessed as cell viability after 48 hrs by MTT assay
Assay type: cell-based
experimental-context: Homo sapiens
pIC50: −log10 of the molar value.

compound: CSC1=NCc2c([nH]c3ccccc23)S1
measured-on: HUVEC
qualifying-sign: =
pIC50: 4.24
//
compound: Brc1ccc(NC2=NCc3c([nH]c4ccccc34)S2)cc1
measured-on: HUVEC
qualifying-sign: =
pIC50: 4.19
//
compound: Cc1ccc(NC2=NCc3c([nH]c4ccccc34)S2)cc1
measured-on: HUVEC
qualifying-sign: <
pIC50: 4.00
//
compound: Clc1ccc(NC2=NCc3c([nH]c4ccccc34)S2)cc1
measured-on: HUVEC
qualifying-sign: =
pIC50: 5.07
//
compound: O=[N+]([O-])c1ccc(NC2=NCc3c([nH]c4ccccc34)S2)cc1
measured-on: HUVEC
qualifying-sign: =
pIC50: 4.24
//
compound: Fc1ccc(NC2=NCc3c([nH]c4ccccc34)S2)cc1
measured-on: HUVEC
qualifying-sign: =
pIC50: 4.38
//
compound: FC(F)(F)c1ccc(NC2=NCc3c([nH]c4ccccc34)S2)cc1
measured-on: HUVEC
qualifying-sign: =
pIC50: 4.16
//
compound: COc1cc([C@@H]2c3cc4c(cc3[C@@H](O[C@@H]3O[C@@H]5CO[C@@H](C)O[C@H]5[C@H](O)[C@H]3O)[C@H]3COC(=O)[C@H]23)OCO4)cc(OC)c1O [ETOPOSIDE]
measured-on: HUVEC
qualifying-sign: =
pIC50: 5.90
//
compound: COc1ccc(NC2=NCc3c([nH]c4ccccc34)S2)cc1
measured-on: HUVEC
qualifying-sign: =
pIC50: 4.29
//
compound: COc1ccc(/C=C\c2cc(OC)c(OC)c(OC)c2)cc1O
measured-on: HUVEC
qualifying-sign: =
pIC50: 8.30
//
compound: COc1cccc2c1C(=O)c1c(O)c3c(c(O)c1C2=O)C[C@@](O)(C(=O)CO)C[C@@H]3O[C@H]1C[C@H](N)[C@H](O)[C@H](C)O1
measured-on: HUVEC
qualifying-sign: =
pIC50: 7.09
//
compound: FC(F)(F)c1cc(NC2=NCc3c([nH]c4ccccc34)S2)cc(C(F)(F)F)c1
measured-on: HUVEC
qualifying-sign: =
pIC50: 4.30
//
compound: c1ccc(NC2=NCc3c([nH]c4ccccc34)S2)cc1
measured-on: HUVEC
qualifying-sign: <
pIC50: 4.00

* * *

System: A549
measurement-notes: Antiproliferative activity against human A549 cells assessed as cell viability after 72 hrs by MTT assay
Format: functional, cell-based
experimental-context: A549, 72 h

compound: FC(F)(F)c1ccc(NC2=NCc3c([nH]c4ccccc34)S2)cc1
measured-on: A549
qualifying-sign: =
IC50 / µM: 40.8
--
compound: CNC(=S)NCc1cn(C(=O)OC(C)(C)C)c2ccccc12
measured-on: A549
qualifying-sign: >
IC50 / µM: 100
--
compound: CO[C@@H]1N(C(=O)OC(C)(C)C)c2ccccc2[C@@]12CN=C(Nc1ccccc1)S2 (racemic)
measured-on: A549
qualifying-sign: =
IC50 / µM: 34
--
compound: CN(C(=S)NCc1cn(C(=O)OC(C)(C)C)c2ccccc12)c1ccccc1
measured-on: A549
qualifying-sign: >
IC50 / µM: 100
--
compound: c1ccc(NC2=NCc3c([nH]c4ccccc34)S2)cc1
measured-on: A549
qualifying-sign: =
IC50 / µM: 34.1
--
compound: CSC1=NCc2c([nH]c3ccccc23)S1 [CYCLOBRASSININ]
measured-on: A549
qualifying-sign: =
IC50 / µM: 70.3
--
compound: CNC1=NC[C@]2(S1)c1ccccc1N(C(=O)OC(C)(C)C)[C@@H]2OC (racemic)
measured-on: A549
qualifying-sign: >
IC50 / µM: 100
--
compound: CNC1=NC[C@]2(S1)c1ccccc1N(C(=O)OC(C)(C)C)[C@H]2OC (racemic)
measured-on: A549
qualifying-sign: >
IC50 / µM: 100
--
compound: CO[C@H]1N(C(=O)OC(C)(C)C)c2ccccc2[C@@]12CN=C(N1CCOCC1)S2 (racemic)
measured-on: A549
qualifying-sign: >
IC50 / µM: 100
--
compound: CO[C@@H]1N(C(=O)OC(C)(C)C)c2ccccc2[C@@]12CN=C(N1CCOCC1)S2 (racemic)
measured-on: A549
qualifying-sign: >
IC50 / µM: 100

Where these numbers come from: ChEMBL document CHEMBL2440045
